Hey, just so you know, these numbers are from patent US10308689B2.

tested on: PBMC of healthy adult blood donors from Colombo, Sri Lanka; test: Ex vivo IFNγ ELISPOT, HLA-matched PBMC of Sri Lankan blood donors; type: cell-based, human; set-up: unit not given here; details: total over responding donors; restricting HLA allele and serotype as given
experimental readout: Total Response per epitope
Give bare numbers.

For `CC(C)C[C@H](NC(=O)[C@@H](NC(=O)[C@@H](NC(=O)[C@H](CC(C)C)NC(=O)[C@@H]1CCCN1C(=O)CNC(=O)[C@@H](NC(=O)[C@H](C)N)[C@@H](C)O)[C@@H](C)O)[C@@H](C)O)C(=O)N[C@@H](Cc1c[nH]c2ccccc12)C(=O)O` the compound record lists Total Response per epitope as 275.0

Value of measured Total Response per epitope for the entry `CC[C@H](C)[C@H](NC(=O)[C@@H]1CCCN1C(=O)CNC(=O)[C@@H](NC(=O)[C@H](C)N)[C@@H](C)O)C(=O)N[C@@H](CO)C(=O)N[C@H](C(=O)N[C@@H](CC(C)C)C(=O)N[C@@H](Cc1c[nH]c2ccccc12)C(=O)O)[C@@H](C)O` : 235.5

---
Entry under test: `CC(C)C[C@H](NC(=O)[C@H](CCCNC(=N)N)NC(=O)[C@@H]1CCCN1C(=O)[C@@H](N)CCCCN)C(=O)N[C@@H](CS)C(=O)N[C@H](C(=O)N[C@@H](CCCNC(=N)N)C(=O)N[C@@H](CCC(=O)O)C(=O)N[C@@H](CCC(=O)O)C(=O)N[C@@H](Cc1ccccc1)C(=O)O)[C@@H](C)O` . Its Total Response per epitope was 350.0
